experiment: Solubility of dasatinib in solvents, quantified using HPLC; assay type: physicochemical; conditions: 6% oleic acid in benzyl alcohol, organic solvent or mixture; 6% Oleic Acid in BA; read-out: Dasatinib solubility (mg/mL, by HPLC)
parameter.measured: solubility
Remember to quote the unit after the number.

Item: Cc1nc(Nc2ncc(C(=O)Nc3c(C)cccc3Cl)s2)cc(N2CCN(CCO)CC2)n1 [dasatinib] | solubility: 25.2 mg/mL

====

test: Solubility of dasatinib in solvents, quantified using HPLC; format: physicochemical; conditions: organic solvent or mixture; solvent EA (ethyl acetate); read-out: Dasatinib solubility (mg/mL, by HPLC)
parameter.measured: solubility

For record `Cc1nc(Nc2ncc(C(=O)Nc3c(C)cccc3Cl)s2)cc(N2CCN(CCO)CC2)n1` the listed solubility is 0.32 mg/mL

====

experiment: Solubility of dasatinib in solvents, quantified using HPLC; type: physicochemical; conditions: organic solvent or mixture; solvent BA (benzyl alcohol); read-out: Dasatinib solubility (mg/mL, by HPLC)
parameter.measured: solubility
Form entry: enter the amount, then its unit.

So, `Cc1nc(Nc2ncc(C(=O)Nc3c(C)cccc3Cl)s2)cc(N2CCN(CCO)CC2)n1` ? Its solubility was 9.45 mg/mL

====

assay: Solubility of dasatinib in solvents, quantified using HPLC; format: physicochemical; details: 9% oleic acid in benzyl alcohol, organic solvent or mixture; 9% Oleic Acid in BA; read-out: Dasatinib solubility (mg/mL, by HPLC)
parameter.measured: solubility (mg/mL)
Give just the number in mg/mL; leave the unit off.

Summary for this compound, `Cc1nc(Nc2ncc(C(=O)Nc3c(C)cccc3Cl)s2)cc(N2CCN(CCO)CC2)n1` : solubility is 29.8
